- Tested System: UniProtKB P11229
- Sequence (whole entry): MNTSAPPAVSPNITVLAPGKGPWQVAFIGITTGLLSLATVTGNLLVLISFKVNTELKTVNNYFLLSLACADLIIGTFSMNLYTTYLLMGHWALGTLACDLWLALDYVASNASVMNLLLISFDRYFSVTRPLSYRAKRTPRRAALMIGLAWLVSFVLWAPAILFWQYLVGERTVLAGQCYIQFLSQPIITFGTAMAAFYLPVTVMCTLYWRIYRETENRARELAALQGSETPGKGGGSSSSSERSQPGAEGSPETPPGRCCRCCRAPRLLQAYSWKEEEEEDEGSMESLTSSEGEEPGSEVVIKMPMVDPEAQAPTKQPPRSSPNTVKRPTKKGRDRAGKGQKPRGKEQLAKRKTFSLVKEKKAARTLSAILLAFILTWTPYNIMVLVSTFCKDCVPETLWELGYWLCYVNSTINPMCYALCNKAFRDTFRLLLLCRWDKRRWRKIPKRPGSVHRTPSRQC
- Protocol Notes: Positive allosteric modulation of human muscarinic M1 receptor expressed CHO cells assessed as intrinsic potency of acetylcholine-induced calcium mobilization by FLIPR assay
- Type: functional, cell-based
Endpoint Label: Activity (nM)

Below: 4 molecules and their reported Activity.
| Mol | Endpoint Label | Unit | Recorded Value |
| --- | --- | --- | --- |
| COc1ccc(Cc2cc(C(=O)O)c(OC)c3ccccc23)cc1 | Activity | nM | 3330 |
| C=CCOc1c(C(=O)N[C@H]2CCCC[C@@H]2O)cc(Cc2ccc(Cl)nc2)c2ccccc12 | Activity | nM | 1100 |
| COc1c(C(=O)N[C@H]2CCCC[C@@H]2O)cc(Cc2ccc(C)nc2)c2ccccc12 | Activity | nM | 121 |
| COc1c(C(=O)N[C@H]2CCCC[C@@H]2O)cc(Cc2ccc(-c3cnn(C)c3)nc2)c2ccccc12 | Activity | nM | 17 |

[A] COc1ccc(Cc2cc(C(=O)N[C@H]3CCCC[C@@H]3O)c(OC)c3ccccc23)cn1
[B] COc1c(C(=O)N[C@H]2CCCC[C@@H]2O)cc(CN2CCC(C#N)(c3ccccn3)CC2)c2ccccc12
[C] COc1c(C(=O)N[C@H]2CCCC[C@@H]2O)cc(Cc2ccc(-c3cccnc3)nc2)c2ccccc12
[D] COc1c(C(=O)N[C@H]2CCCC[C@@H]2O)cc(Cc2ccc(-n3cccn3)nc2)c2ccccc12
[E] COc1c(C(=O)N[C@H]2CCCC[C@@H]2O)cc(CN2CCN(c3cnn(C)c3)CC2)c2ccccc12
Sort entries by Activity from minimum to maximum value. I'd appreciate it if you listed the labels in the requested order.
C, D, A, B, E

---

- Tested on: Plasma
- Protocol Notes: Plasma concentration in Sprague-Dawley rat at 10 mg/kg, po; further: time not given here
- Assay type: ADME, organism-based
- Design: dose 10 mg/kg, route oral
- Details: in vivo
Endpoint Label: concentration (µM)

Some molecules with known concentration results, for comparison:
| Mol | Tested System | Unit | concentration |
| --- | --- | --- | --- |
| COc1c(C(=O)N[C@H]2CCCC[C@@H]2O)cc(Cc2ccc(Cl)nc2)c2ccccc12 | Plasma | µM | 2.06 |
| COc1c(C(=O)N[C@H]2CCCC[C@@H]2O)cc(Cc2ccc(C)nc2)c2ccccc12 | Plasma | µM | 6.02 |

[A] COc1c(C(=O)N[C@H]2CCCC[C@@H]2O)cc(Cc2ccc(-n3cccn3)nc2)c2ccccc12
[B] COc1c(C(=O)N[C@H]2CCCC[C@@H]2O)cc(Cc2ccc(-c3cccnc3)nc2)c2ccccc12
[C] COc1c(C(=O)N[C@H]2CCCC[C@@H]2O)cc(Cc2ccc(-c3cnn(C)c3)nc2)c2ccccc12
// ascending sort on recorded concentration Please write the labels in the order that was asked for.
A, B, C
